- experimental-target: ΔF508-CFTR (Homo sapiens, UniProt P13569, DEL508-508)
- Sequence (P13569 with tags, fused parts or gaps DEL508-508): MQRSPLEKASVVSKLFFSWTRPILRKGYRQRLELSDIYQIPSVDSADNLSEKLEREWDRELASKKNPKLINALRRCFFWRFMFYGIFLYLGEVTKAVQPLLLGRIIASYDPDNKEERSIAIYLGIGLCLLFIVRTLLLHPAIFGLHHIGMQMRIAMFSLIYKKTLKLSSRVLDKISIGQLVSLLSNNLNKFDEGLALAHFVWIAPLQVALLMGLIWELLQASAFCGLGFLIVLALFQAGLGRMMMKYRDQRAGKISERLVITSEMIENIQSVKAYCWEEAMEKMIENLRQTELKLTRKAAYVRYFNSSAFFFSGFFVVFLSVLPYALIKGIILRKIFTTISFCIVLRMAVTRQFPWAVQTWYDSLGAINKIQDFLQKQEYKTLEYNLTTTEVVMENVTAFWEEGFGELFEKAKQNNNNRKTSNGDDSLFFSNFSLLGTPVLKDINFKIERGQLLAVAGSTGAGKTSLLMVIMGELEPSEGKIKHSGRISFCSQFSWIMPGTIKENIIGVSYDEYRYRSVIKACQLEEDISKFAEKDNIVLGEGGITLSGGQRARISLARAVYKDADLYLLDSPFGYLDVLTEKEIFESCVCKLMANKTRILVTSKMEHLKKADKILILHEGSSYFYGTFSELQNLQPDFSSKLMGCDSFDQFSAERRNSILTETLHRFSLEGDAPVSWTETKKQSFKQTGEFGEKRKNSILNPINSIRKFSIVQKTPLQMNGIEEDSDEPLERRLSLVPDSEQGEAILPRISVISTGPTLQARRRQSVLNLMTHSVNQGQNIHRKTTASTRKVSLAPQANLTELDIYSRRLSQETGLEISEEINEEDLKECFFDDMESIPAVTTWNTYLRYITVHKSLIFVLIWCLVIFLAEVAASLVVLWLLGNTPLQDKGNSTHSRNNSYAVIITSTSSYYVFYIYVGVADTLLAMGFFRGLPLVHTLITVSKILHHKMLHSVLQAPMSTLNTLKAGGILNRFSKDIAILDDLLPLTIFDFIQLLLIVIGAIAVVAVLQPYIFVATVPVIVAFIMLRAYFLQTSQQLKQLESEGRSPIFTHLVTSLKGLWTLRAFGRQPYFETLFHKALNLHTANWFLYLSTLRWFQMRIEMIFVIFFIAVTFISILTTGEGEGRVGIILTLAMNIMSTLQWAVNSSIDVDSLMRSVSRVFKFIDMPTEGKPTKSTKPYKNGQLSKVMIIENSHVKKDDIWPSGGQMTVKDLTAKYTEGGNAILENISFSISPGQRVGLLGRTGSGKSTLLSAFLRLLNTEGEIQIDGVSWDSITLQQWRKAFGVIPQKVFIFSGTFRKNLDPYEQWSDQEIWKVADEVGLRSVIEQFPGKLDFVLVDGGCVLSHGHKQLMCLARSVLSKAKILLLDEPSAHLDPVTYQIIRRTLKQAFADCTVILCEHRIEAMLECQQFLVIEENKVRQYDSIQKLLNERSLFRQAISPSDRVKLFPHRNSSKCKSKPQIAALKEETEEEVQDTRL
- procedure-text: Membrane potential optical assay (FRET/VIPR), identification of correction compounds
pEC50: −log10 of the molar value.
metric: pEC50

Please review the following examples before continuing.
{"compound": "Cc1ccc(S(=O)(=O)N2CCN(C(C)c3nc4ccc(S(C)(=O)=O)cc4c(=O)n3C)CC2)cc1 (centres unmarked)", "data-value": "4.60 to 5.00"}
{"compound": "CC(c1nc2cc(Cl)ccc2c(=O)n1C)N1CCN(S(=O)(=O)c2ccc(S(C)(=O)=O)cc2)CC1 (centres unmarked)", "data-value": "4.60 to 5.00"}
{"compound": "CC(c1nc2ccccc2c(=O)n1C)N1CCC(N)C1 (centres unmarked)", "data-value": "4.22 to 4.60"}

Data request: Tell me measured pEC50 for Cn1c(CN2CCN(S(=O)(=O)c3ccccc3)CC2)nc2ccc(Cl)cc2c1=O please.
Data returned: 4.60 to 5.00

Data request: Tell me measured pEC50 for CCC(c1nc2ccccc2c(=O)[nH]1)N1CCN(S(=O)(=O)c2ccc(OC)cc2)CC1 (centres unmarked) please.
Data returned: 4.22 to 4.60

Data request: Tell me measured pEC50 for CC(c1nc2ccccc2c(=O)n1C)N1CCN(S(=O)(=O)c2ccc(Cl)c3nonc23)CC1 (centres unmarked) please.
Data returned: 4.22 to 4.60

Data request: Tell me measured pEC50 for CC(c1nc2ccc(S(C)(=O)=O)cc2c(=O)n1C)N1CCN(S(=O)(=O)c2ccc(Cl)cc2)CC1 (centres unmarked) please.
Data returned: 4.60 to 5.00

Data request: Tell me measured pEC50 for COc1ccc(S(=O)(=O)N2CCN(C(C)c3nc(N4CC[C@@H](NC(C)=O)C4)c4ccccc4n3)CC2)cc1 (some centres unmarked) please.
Data returned: 4.22 to 4.60

Just for reference, patent US8642609B2 is where these values come from.
